Test system: RPMI-8226 leukemia
Experiment: NCI-60 one-dose screen, 48 h
Details: 10 µM unless noted
Compounds without any hit were thinned out: in the full panel of roughly 83,000, 20% have a hit. Calls of active or inactive are those of the source. The calls were made as follows: active = growth percent below 10; inactive = the rest.
Bench note: report the call from active, inactive

Query block: Entry `COCCCNS(=O)(=O)c1ncnc2nc[nH]c12` : call = ?
Result block: inactive

Query block: // same read-out, input: OC(c1cc(-c2cccc(Cl)c2)nc2ccccc12)C1CCCCN1 (centres undefined)
Result block: active

Query block: // same read-out, input: `CCCCCCCCN(CCO)CCCCCCCC`
Result block: inactive

Query block: // same read-out, input: `CCCCCc1c(C)[nH]c(/C=C2\N=C(c3ccc[nH]3)C=C2OCc2ccccc2)c1C`
Result block: active

====

Would you mind telling me the reported growth of each entry?
System: COLO 205 colon
Experiment: NCI-60 one-dose screen, 48 h (100 = growth as untreated, 0 = no growth, -100 = all killed)
Conditions: 10 µM unless noted
About 83,000 compounds went through this panel and 20% of them were active in at least one assay; those are over-represented in the sample as a whole.
Response body: numeric value in %, unit text excluded.

Query block: // lookup growth for `Cc1ccc(C(=O)Cc2ccccc2)c(O)c1`
Result block: 109

Query block: // same read-out, input: `COc1cc(NC(=O)NCc2ccco2)ccc1-c1ccc(NC(=O)NCc2ccco2)cc1OC`
Result block: 64.9

Query block: // same read-out, input: `COC(=O)[C@H]1[C@H]2C[C@@H]3c4[nH]c5cc(OC)ccc5c4CCN3C[C@H]2C[C@@H](OC(=O)/C=C/c2cc(OC)c(OC)c(OC)c2)[C@@H]1OC`
Result block: 67.6

====

System: MCF7 breast
Assay: NCI-60 one-dose screen, 48 h
Settings: 10 µM unless noted
This is part of a sample that, as a whole, favours compounds with a hit. Of some 83,000 tested, about 20% had one in any assay. Active and inactive are the calls of the source. Rule for the calls: active = growth percent below 10; inactive = the rest.
Bench note: report the call from T = active, F = inactive

Query block: Entry `COc1cc(/C=C/c2cc(/C=C/c3ccc(O)c(OC)c3)n(C(=O)c3ccc(Cl)cc3)n2)ccc1O` : call = ?
Result block: F

Query block: // same read-out, input: `CCCCCc1c(C)[nH]c(/C=C2\N=C(c3ccc[nH]3)C=C2Oc2ccccc2)c1C`
Result block: T

Query block: // same read-out, input: `O=C(NCCNC(=O)Oc1cccc2ccccc12)Oc1cccc2ccccc12`
Result block: F

Query block: // same read-out, input: `COc1ccc(NC(=O)c2ccc(-c3ccccc3)cc2)c(C(N)=O)c1`
Result block: F

Query block: // same read-out, input: `O=C1/C(=C/c2ccccc2Cl)CCc2ccccc21`
Result block: F

Query block: // same read-out, input: `COc1ccc2c3c(ccc2c1)C(=O)/C(=C\O)CC3`
Result block: F

Query block: // same read-out, input: `CN(C)c1ccc(-c2nc3ncc(Br)cc3o2)cc1`
Result block: F

Query block: // same read-out, input: CCOC(=O)C1C(=O)NC(C(=O)OCC)(C(=O)OCC)C1CC (centres undefined)
Result block: F

Query block: // same read-out, input: `CCCCCN1C(=O)CCC1=O`
Result block: F

Query block: // same read-out, input: `O=C(O)C1CCN(S(=O)(=O)c2ccc(-c3ccccc3)cc2)CC1`
Result block: F

Query block: // same read-out, input: `CCOC(=O)Nc1cc(-c2ccc(C)c(NS(C)(=O)=O)c2)nn2c(C)nnc12`
Result block: F

Query block: // same read-out, input: `COC(=O)[C@H](Cc1cn(C)cn1)NC(=O)[C@@H](NC(=O)Nc1cc(C(F)(F)F)cc(C(F)(F)F)c1)C(C)C`
Result block: T

Query block: // same read-out, input: `O=C1OC2(c3ccccc31)c1ccccc1-c1ccccc12`
Result block: F

Query block: // same read-out, input: `CCOC(=O)C(C(=O)OCC)C1CCCCC1`
Result block: F

Query block: // same read-out, input: `COc1ccc(C(=O)COc2ccc(/C=C3\Oc4ccc5ccccc5c4C3=O)cc2)cc1`
Result block: F

Query block: // same read-out, input: COc1cc(NC(C)CCCN)c2nc(C)ccc2c1Oc1ccc(F)cc1 (centres undefined)
Result block: F

Query block: // same read-out, input: `COc1ccc(Cl)cc1Nc1nc(C(F)(F)F)ccc1C(=O)N/N=C/c1c(Cl)cccc1Cl`
Result block: F

Query block: // same read-out, input: `CN1CCN(CCCCCN=c2cc3c(=O)n(CCCCCN4CCN(C)CC4)c(=O)c4c(NCCCCCN5CCN(C)CC5)cc5c(O)n(CCCCCN6CCN(C)CC6)c(=O)c2c5c4-3)CC1`
Result block: T

Query block: // same read-out, input: Cc1ccccc1NC(=O)NC(CC(N)=O)c1ccc2c(c1)nc(-c1cccc(Oc3ccc(C(C)(C)C)cc3)c1)n2CCCN1CCCCC1C (centres undefined)
Result block: T

Query block: // same read-out, input: `CC(=O)c1ccccc1NC(=O)C(C)(c1ccccc1)c1ccccc1`
Result block: F

Query block: // same read-out, input: `CC(=O)c1nn(-c2ccccc2)c(=Nc2ccccc2)cc1C`
Result block: F

Query block: // same read-out, input: `CCCCCCCCCCOC(C)=O`
Result block: F

Query block: // same read-out, input: `Cc1ccc(C(=O)Cc2ccccc2)c(O)c1`
Result block: F

Query block: // same read-out, input: `Cc1cc(Br)c(C)cc1Br`
Result block: F

Query block: // same read-out, input: `Cc1ccc2nc3c(n2c1)C(=O)C(=O)c1ccccc1-3`
Result block: T

Query block: // same read-out, input: `CCCCc1n(Cc2ccc3ccccc3c2)cc[n+]1Cc1ccc2ccccc2c1`
Result block: T

Query block: // same read-out, input: `CCCCNCCCN(CCCC)CCCNCCCC`
Result block: F

Query block: // same read-out, input: `COc1ccc(CC(=O)Nc2nn3c(-c4cc(C(F)(F)F)cc(C(F)(F)F)c4)nnc3s2)cc1`
Result block: F

Query block: // same read-out, input: `CSc1nc(N)c2c(n1)N(C)C=NS2(=O)=O`
Result block: F

Query block: // same read-out, input: `N#Cc1c(-c2ccccc2)cc(-c2ccccc2)n(CC(=O)O)c1=O`
Result block: F

Query block: // same read-out, input: `O=c1c2c(=NCCCN3CCCC3)cc3c(=O)n(CCCN4CCCC4)c(=O)c4c(NCCCN5CCCC5)cc(c(O)n1CCCN1CCCC1)c2c4-3`
Result block: T

Query block: // same read-out, input: `FC(F)(F)c1ccc(-c2cnc(-c3nn[nH]n3)nc2NC2CCCCCC2)cc1`
Result block: F

Query block: // same read-out, input: `COc1ccc2ncccc2c1Cc1c(OC)ccc2ncccc12`
Result block: F

Query block: // same read-out, input: `N#Cc1c(-c2ccc(F)cc2)n2c(nc1=O)SC(=O)C2=O`
Result block: F

Hello, the source for this data is PubChem BioAssay (NCI), in case you need it.
